System name: Dickkopf-related protein 1 (Homo sapiens) (UniProt O94907)
Sequence (O94907 whole entry, looked up): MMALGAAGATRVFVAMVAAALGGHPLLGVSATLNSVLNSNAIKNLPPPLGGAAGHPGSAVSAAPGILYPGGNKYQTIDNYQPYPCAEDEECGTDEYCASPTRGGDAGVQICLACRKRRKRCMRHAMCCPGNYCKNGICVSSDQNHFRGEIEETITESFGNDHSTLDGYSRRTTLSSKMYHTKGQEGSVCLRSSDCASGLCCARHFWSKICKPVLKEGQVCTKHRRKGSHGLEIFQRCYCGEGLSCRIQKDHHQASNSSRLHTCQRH
Assay info: DKK1 binders on small-molecule microarrays, primary screen, biochemical, small-molecule microarray, 635 nm fluorescence scan (AID 1106);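 note: score merges emission near 667 nm with signal to noise over three replicate slides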
Condition info: DKK1 binding, higher = more signal
Would you please tag the item Condition met when its composite z-score is -0.02 or above, and Condition not met when it is below?

Q: Is composite z-score for `C=C(COC)C(=O)CC[C@@H](OC(C)=O)c1ccc(CO)o1` at or above -0.02?
A: Condition met

Q: Is composite z-score for C=CCC(OC(C)=O)[C@@H]1[C@@H](N(Cc2ccc(-c3ccccc3)cc2)C(=O)Cc2ccc(OC)cc2)c2cc(OCCCO)ccc2N1C(=O)Cc1ccc2ccccc2c1 (stereo partly drawn) at or above -0.02?
A: Condition not met

Q: Is composite z-score for CC(C)C(O)C1C=CC2C(=O)N(c3ccccc3)C(=O)C2N1Nc1ccc([N+](=O)[O-])cc1 (stereo not drawn) at or above -0.02?
A: Condition not met

Q: Is composite z-score for `Cc1ccc(S[C@]2(C(=O)NCCCN(C)C)CC(=O)N(Cc3ccccc3C(F)(F)F)[C@@H]2c2ccc(CO)cc2)cc1` at or above -0.02?
A: Condition not met

Q: Is composite z-score for `COC(=O)C(CC#Cc1ccc2c(c1)[C@]1(C(=O)N2)[C@H](C(=O)Nc2nc3ccccc3s2)[C@H]2C(=O)O[C@H](c3ccccc3)[C@H](c3ccccc3)N2[C@@H]1c1ccc(O)cc1)C(=O)OC` at or above -0.02?
A: Condition met

Q: Is composite z-score for `COCCOC(=O)N1C(=O)[C@@]2(c3cc(C#Cc4ccc(OC)cc4)ccc31)[C@H](c1ccc(O)cc1)N1[C@H](c3ccccc3)[C@H](c3ccccc3)OC(=O)[C@H]1[C@@H]2C(=O)N1CCc2cc(OC)c(OC)cc2C1` at or above -0.02?
A: Condition met

Q: Is composite z-score for `COC(=O)[C@@]1(Cc2ccc(OC)cc2)[C@H]2c3cc(C(=O)N4CCCC4)n(Cc4ccc(C)c(F)c4F)c3C[C@H]2CN1C(=O)c1ccccc1` at or above -0.02?
A: Condition not met

Q: Is composite z-score for `C=C(C(=O)CC[C@@H](OC(=O)c1cccnc1)c1ccccc1OCCO)C(C)C` at or above -0.02?
A: Condition met

Q: Is composite z-score for `COCCOC(=O)N1C(=O)[C@@]2(c3ccccc31)[C@H](C(=O)N1CCc3cc(OC)c(OC)cc3C1)[C@H]1C(=O)O[C@H](c3ccccc3)[C@H](c3ccccc3)N1[C@@H]2c1ccc(OCCO)cc1` at or above -0.02?
A: Condition met

Q: Is composite z-score for `COc1ccc(C#Cc2ccc3c(c2)[C@]2(C(=O)N3)[C@H](C(=O)Nc3nc4ccccc4s3)[C@H]3C(=O)O[C@H](c4ccccc4)[C@H](c4ccccc4)N3[C@@H]2c2ccc(O)cc2)cc1` at or above -0.02?
A: Condition met

Q: Is composite z-score for `NC(=O)NCC#Cc1ccc2c(c1)[C@]1(C(=O)N2)[C@H](C(N)=O)[C@H]2C(=O)O[C@H](c3ccccc3)[C@H](c3ccccc3)N2[C@@H]1c1ccc(O)cc1` at or above -0.02?
A: Condition not met

Q: Is composite z-score for `COC(=O)c1c(CC[C@@H](CO)NC(=O)NCCn2cc(C3(O)CCCC3)nn2)oc(C(C)=O)c1C(=O)OC` at or above -0.02?
A: Condition met

Q: Is composite z-score for `COCCCNC(=O)[C@]1(CCC(=O)OC(C)(C)C)N=C(c2ccc(OCCCO)cc2)O[C@@H]1c1ccccc1CN=[N+]=[N-]` at or above -0.02?
A: Condition not met

###

For each record, write down the corresponding composite z-score.
System name: Torsin-1A-interacting protein 2 (Homo sapiens) (UniProt Q8NFQ8)
Sequence (Q8NFQ8 whole entry, looked up): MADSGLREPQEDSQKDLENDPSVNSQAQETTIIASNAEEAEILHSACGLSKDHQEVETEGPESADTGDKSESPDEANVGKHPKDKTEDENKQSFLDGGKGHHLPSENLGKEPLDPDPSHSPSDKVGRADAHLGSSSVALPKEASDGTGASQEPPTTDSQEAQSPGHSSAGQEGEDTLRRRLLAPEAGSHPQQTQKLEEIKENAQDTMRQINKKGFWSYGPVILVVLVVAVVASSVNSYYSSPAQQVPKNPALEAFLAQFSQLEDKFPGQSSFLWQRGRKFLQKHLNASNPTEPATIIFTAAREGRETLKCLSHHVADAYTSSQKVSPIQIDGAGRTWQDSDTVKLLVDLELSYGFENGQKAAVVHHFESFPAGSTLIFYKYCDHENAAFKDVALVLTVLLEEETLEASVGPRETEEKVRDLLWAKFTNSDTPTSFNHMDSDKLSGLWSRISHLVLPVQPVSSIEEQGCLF
Assay info: LULL1 binders on small-molecule microarray, primary screen, cell lysate, human LULL1 lysate, 635/667 nm fluorescence (AID 1092);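 note: probe is lysate of COS7 cells overexpressing human LULL1; score merges per-feature 667 nm fluorescence with signal-to-noise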
Condition info: hLULL1 lysate binding, 635 nm fluorescence, higher = more signal
Number only, please.

Q: Recorded composite z-score of `CC(C)OC(=O)C=C1C[C@@H](c2ccccn2)O[C@@H](c2ccccn2)O1` , please.
A: 0.0473

Q: Recorded composite z-score of `COc1ccc([C@H]2OC[C@@H]3C[C@@H](Cc4ccccc4)C(=O)N32)cc1` , please.
A: 0.0239

Q: Recorded composite z-score of `COc1ccc([Si](C)(C)[C@H]2[C@H](CC(=O)N3Cc4ccccc4C[C@H]3CO)O[C@@]3(C(=O)N(Cc4cccc(N5CCC5=O)c4)c4ccccc43)[C@@H]2C)cc1` , please.
A: 2.26

Q: Recorded composite z-score of `C=CC[C@@]12N=C(c3ccc(OCCCO)cc3)O[C@@H]1c1ccccc1N(C)C2=O` , please.
A: 2.93

Q: Recorded composite z-score of `CCCC[C@H]1OB(O)C[C@H]2C1=C(COC)Cn1c(=O)n(-c3ccccc3)c(=O)n12` , please.
A: 0.814

Q: Recorded composite z-score of `CCCC[C@@H]1C[C@H]1[C@@H](NC(=O)C(C)(C)C)c1ccc(C(F)(F)F)cc1` , please.
A: 0.918

Q: Recorded composite z-score of CCCCN1CC=CC23O[C@@H]4C=CCCOC(=O)C4[C@H]2C(=O)N(CCCCCCO)[C@@H]3C1=O (stereo partly specified) , please.
A: 1.74

Q: Recorded composite z-score of `COC(=O)[C@@]1(Cc2ccc(F)cc2)[C@H]2c3cc(C(=O)N4CCCC4)n(Cc4ccc(S(C)(=O)=O)cc4)c3C[C@H]2CN1C(=O)c1ccccc1` , please.
A: 3.29

Q: Recorded composite z-score of `O=C1c2ccccc2[C@](Cc2ccccc2I)(C(=O)NCCN2CCOCC2)[C@H](c2ccc(CO)cc2)N1Cc1ccccc1Cl` , please.
A: 2.45

Q: Recorded composite z-score of `COc1ccc([Si](C)(C)[C@@H]2[C@@H](CCO)O[C@]3(C(=O)N(Cc4ccc(N(C=O)c5ccccc5)cc4)c4ccccc43)[C@H]2C)cc1` , please.
A: 0.758

Q: Recorded composite z-score of `O=C(NCCN1CCOCC1)[C@@H]1c2ccccc2C(=O)N(C2CCCCC2)[C@H]1c1ccc(CO)cc1` , please.
A: 2.35

Q: Recorded composite z-score of `COc1ccc(-c2cc3c(c(-c4ccc(Oc5ccccc5)cc4)n2)[Si](C(C)C)(C(C)C)OC3)cn1` , please.
A: -0.166

Q: Recorded composite z-score of `C=CC[C@]1(C(=O)NCc2ccccc2)N=C(c2ccc(OCCCO)cc2)O[C@H]1c1ccccc1N=[N+]=[N-]` , please.
A: 3.24

Q: Recorded composite z-score of `COC(=O)[C@@]1(Cc2ccc(F)cc2)[C@H]2c3cc(C(=O)N(C)C)n(Cc4cc(F)c(F)c(F)c4)c3C[C@H]2CN1C(=O)c1ccccc1` , please.
A: 3.07

Q: Recorded composite z-score of `COC(=O)C(CC#Cc1ccc2c(c1)[C@]1(C(=O)N2)[C@H](C(=O)Nc2nc3ccccc3s2)[C@H]2C(=O)O[C@H](c3ccccc3)[C@H](c3ccccc3)N2[C@@H]1c1ccc(O)cc1)C(=O)OC` , please.
A: 2.82

Q: Recorded composite z-score of `C=C[C@H](C)[C@@H](OC(=O)Nc1ccc(OC)cc1)c1ccc(O)c2ccccc12` , please.
A: 1.63

###

For each record, write down the corresponding composite z-score.
Assay info: small-molecule microarray binders of probe aCHRDL2, primary screen, biochemical, biotinylated probe, 635/667 nm fluorescence (AID 1100)
Condition info: higher = more signal
Number only, please.

Q: Recorded composite z-score of `O=C(CS)NCCCCCCNC(=O)[C@@H]1C[C@@H]2C(=O)NCC(=O)N2[C@@H]1c1cccc(OCCO)c1` , please.
A: 0.632

Q: Recorded composite z-score of O=C1NC(=O)C2C1C=CC(C(O)c1cc(C(F)(F)F)cc(C(F)(F)F)c1)N2Nc1ccccn1 (centres undefined) , please.
A: -0.387

Q: Recorded composite z-score of `NC(=O)NCC#Cc1ccc2c(c1)[C@]1(C(=O)N2)[C@H](C(=O)Nc2nc3ccccc3s2)[C@H]2C(=O)O[C@H](c3ccccc3)[C@H](c3ccccc3)N2[C@@H]1c1ccccc1OCCO` , please.
A: -0.202

Q: Recorded composite z-score of `COC(=O)[C@@]1(Cc2ccc(OC)cc2)[C@H]2c3cc(C(=O)N4CCCC4)n(Cc4ccc(O)c(OC)c4)c3C[C@H]2CN1C(=O)c1ccccc1` , please.
A: 1.39

###

System name: Follistatin-related protein 3 (Homo sapiens) (UniProt O95633)
Sequence (O95633 whole entry, looked up): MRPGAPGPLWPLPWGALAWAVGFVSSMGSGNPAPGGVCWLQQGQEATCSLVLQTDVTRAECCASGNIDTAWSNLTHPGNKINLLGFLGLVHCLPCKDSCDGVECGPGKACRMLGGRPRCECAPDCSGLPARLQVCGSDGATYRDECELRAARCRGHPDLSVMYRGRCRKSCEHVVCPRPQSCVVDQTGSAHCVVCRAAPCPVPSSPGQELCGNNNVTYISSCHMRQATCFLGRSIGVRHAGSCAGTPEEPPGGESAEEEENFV
Assay info: FSTL3 binders on small-molecule microarrays, primary screen, biochemical, small-molecule microarray, 635 nm fluorescence (AID 1105);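 note: score merges emission near 667 nm and signal to noise per printed spot across three slides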
Condition info: FSTL3 binding, higher = more signal
Categorize each record by its composite z-score using I = under -0.07, II = from -0.07 up to 0.6, III = 0.6 and over

Q: Band for CN1C(=O)C2C=CC(C(O)c3ccc([N+](=O)[O-])cc3)N(N3CCCCC3)C2C1=O (centres undefined) ?
A: III

Q: Band for `Cc1ccc(S[C@]2(C(=O)NCCCN(C)C)CC(=O)N(Cc3ccccc3C(F)(F)F)[C@@H]2c2ccc(CO)cc2)cc1` ?
A: I

Q: Band for `C[N+](C)(C)CCCC[C@@H]1NC(=O)[C@H]2C[C@@H](C(=O)NCCCCCCNC(=O)CS)[C@@H](c3cccc(OCCO)c3)N2C1=O` ?
A: I

Q: Band for `COc1ccc([Si](C)(C)[C@H]2[C@H](CC(=O)N3Cc4ccccc4C[C@H]3CO)O[C@@]3(C(=O)N(Cc4cccc(N5CCC5=O)c4)c4ccccc43)[C@@H]2C)cc1` ?
A: III

Q: Band for `NC(=O)NCC#Cc1ccc2c(c1)[C@]1(C(=O)N2)[C@H](C(N)=O)[C@H]2C(=O)O[C@H](c3ccccc3)[C@H](c3ccccc3)N2[C@@H]1c1ccc(O)cc1` ?
A: II

Q: Band for COc1cc(C(O)C2C=CC3C(=O)NC(=O)C3N2Nc2ccccn2)cc(OC)c1OC (centres undefined) ?
A: II

Q: Band for `CC(C)=CCN[C@H](CO)c1ccccc1` ?
A: II

Q: Band for `COc1cccc(-c2cccc(=O)o2)c1` ?
A: II

Q: Band for `COc1cc(COC(C)=O)ccc1OC(C)=O` ?
A: II
